Test system: A498 renal
TEST_SUMMARY: NCI tumour cell line growth inhibition, 48 h
READOUT: log10(TGI) (log10 of the value in µM)
In our notation, the value equals log10 of TGI in µM.

INPUT: Entry COc1ccc(OC)c(-c2nc3sc(C)cn3c2/C=C2\C(=O)N(C)c3ccccc32)c1 : reported log10(TGI) = ?
OUTPUT: 1.85

INPUT: Record request: log10(TGI) value, item Cc1ccc(C2SCc3nc4ccccc4n32)cc1 (stereo not given)
OUTPUT: 0.96

INPUT: Given the entry COc1ccccc1NC(=O)C1=C(C)NC(C)=C(C(=O)Nc2ccccc2OC)C1c1ccc(C2C(C(=O)Nc3ccccc3OC)=C(C)NC(C)=C2C(=O)Nc2ccccc2OC)cc1 , report its measured log10(TGI).
OUTPUT: 1.19

INPUT: Would you mind telling me what log10(TGI) value was observed for CCCC(=O)Nc1cc(/C=C/C(=O)N2CC(CCl)c3c2cc(OC(C)=O)c2[nH]cc(C)c32)n(C)c1 (stereo not given) ?
OUTPUT: -3.18

INPUT: Value lookup for log10(TGI); key = O=C1c2ccccc2C(=O)c2c1sc1nc3ccccc3n21
OUTPUT: 1.37

INPUT: Give the measured log10(TGI) of NC1=C(/C(N)=N/O)C(c2ccccc2)c2ccc3ccccc3c2O1 (stereo not given) .
OUTPUT: -0.14

INPUT: Consider the molecule shown here: COC(=O)[C@]12CC[C@@H](C)[C@H](C)[C@@H]1C1=CC[C@@H]3[C@@]4(C)C(C=O)=C[C@@](C)(COC(=O)c5ccco5)C4=CC[C@@]3(C)[C@]1(C)CC2 What is its recorded log10(TGI)?
OUTPUT: 1.23

INPUT: # log10(TGI) lookup, item CN(CCc1ccccn1)c1ccc2c(c1)Cc1ccccc1-2
OUTPUT: 1.70

###

Exercise: for every item that follows, state its recorded TGI.
Test system: TK-10 renal
TEST_SUMMARY: NCI tumour cell line growth inhibition, 48 h

INPUT: Given the entry NC1=C(/C(N)=N/O)C(c2ccccc2)c2ccc3ccccc3c2O1 (configuration not stated) , report its measured TGI.
OUTPUT: > 100 µM

INPUT: Given COc1ccc(/C=N/NC(=O)CSc2nc(-c3ccccc3)c(-c3ccccc3)[nH]2)cc1OC , state its recorded TGI.
OUTPUT: > 100 µM

INPUT: Item COC(=O)C(Br)(C(=O)OC)C(Br)C(Br)C(Br)c1ccccc1 (configuration not stated) has what recorded TGI?
OUTPUT: 6.19 µM

INPUT: What value of TGI has been reported for the following molecule? N#CC(C(=S)Nc1ccccc1)=C1Nc2ccccc2N1
OUTPUT: > 10 µM

INPUT: Which TGI is reported for this molecule? O=C(c1nc2ccc(Cl)cc2[nH]c1=O)C(O)c1ccco1 (configuration not stated)
OUTPUT: > 100 µM

INPUT: Requested field: TGI. Item: CC(NC(=O)c1ccc(OP(=O)(OCc2ccc([N+](=O)[O-])o2)N(C)CCCCCl)cc1)c1ccc(OCC2CCCCC2)c(C(N)=O)c1 (configuration not stated)
OUTPUT: 60.9 µM

INPUT: Quick one: TGI for Cc1cc(=O)[nH]c(S(=O)(=O)NC(=O)Nc2cccc(Cl)c2)n1 ?
OUTPUT: > 100 µM

INPUT: Which measured TGI value corresponds to CC(CCCCNC(=O)OC(C)(C)C)NC(=O)NC(C)CCCCNC(=O)OC(C)(C)C (configuration not stated) ?
OUTPUT: > 100 µM

INPUT: I would be grateful if you could share the reported TGI for CCCCc1n(Cc2ccc3ccccc3n2)cc[n+]1Cc1ccc2ccccc2c1 .
OUTPUT: 3.69 µM

INPUT: I would be grateful if you could share the reported TGI for CCOc1cc(CCNC)c2c(ccc3ccc(OC)c(O)c32)c1OC .
OUTPUT: 32.7 µM

INPUT: GET /values?readout=TGI&item= COc1cc2ccnc(-c3n[nH]c4cc(OC)c(OC)cc34)c2cc1OC
OUTPUT: > 100 µM

INPUT: Entry C[C@]12O[C@@]3(C)O[C@@]3(C)[C@]3(C)O[C@]3(C)[C@@]1(C)O2 : reported TGI = ?
OUTPUT: > 100 µM

INPUT: # TGI lookup, item OCC(O)C(OC1OC(CO)C(O)C(O)C1O)c1nn(-c2ccc(Cl)cc2)c2nc3cc(Cl)c(Cl)cc3nc12 (configuration not stated)
OUTPUT: > 100 µM

INPUT: // TGI lookup, key: N#Cc1n[nH]n(-c2ccccc2)c1=O
OUTPUT: > 100 µM

INPUT: What does the record list as TGI for O=C1CCCc2cc3c(cc21)CC1(C3)Cc2cc3c(cc2C1)C(=O)CCC3 ?
OUTPUT: 43.1 µM

INPUT: Reported TGI for C#CCn1c2c(c3ccccc3c1=O)C(=O)c1ccccc1-2 : what is it?
OUTPUT: 61.6 µM

INPUT: Recorded TGI of C#CCOCn1cnc2c(N)ncnc21 , please.
OUTPUT: > 100 µM

Hello, the source for this data is PubChem BioAssay (NCI), in case you need it.
